assay overview: Cmax 24 hr after 2 mg/kg oral administration in rats
Assay type: ADME, organism-based
Design: dose 2 mg/kg, route oral
condition summary: rat, in vivo
property label: Cmax

1. CCC[C@@H](c1ccc(C(F)(F)F)cc1)N1CCN(C2(C)CCN(C(=O)c3c(C)ncnc3C)CC2)C[C@@H]1C :: 311 ng/mL

* * *

assay overview: Area under curve value 24 hr after 2 mg/kg iv administration in monkeys
Assay type: ADME, organism-based
Parameters: time < 24 hr, dose 2 mg/kg, route intravenous
condition summary: cercopithecidae, in vivo
property label: AUC 0-24h (ng·h/mL)

1) CCC[C@@H](c1ccc(C(F)(F)F)cc1)N1CCN(C2(C)CCN(C(=O)c3c(C)ncnc3C)CC2)C[C@@H]1C :: 2670
2) COC[C@@H](c1ccc(C(F)(F)F)cc1)N1CCN(C2(C)CCN(C(=O)c3c(C)ncnc3C)CC2)C[C@@H]1C :: 2240

* * *

System: Rattus norvegicus
assay overview: Area under curve value 24 hr after 2 mg/kg iv administration in rats
Assay type: ADME, organism-based
Set-up: time < 24 hr, dose 2 mg/kg, route intravenous
condition summary: in vivo
property label: AUC 0-24h (ng·h/mL)

1. CCC[C@@H](c1ccc(C(F)(F)F)cc1)N1CCN(C2(C)CCN(C(=O)c3c(C)ncnc3C)CC2)C[C@@H]1C :: 4550

* * *

target entity: Muscarinic acetylcholine receptor M3 (Homo sapiens)
Sequence (P20309 whole entry): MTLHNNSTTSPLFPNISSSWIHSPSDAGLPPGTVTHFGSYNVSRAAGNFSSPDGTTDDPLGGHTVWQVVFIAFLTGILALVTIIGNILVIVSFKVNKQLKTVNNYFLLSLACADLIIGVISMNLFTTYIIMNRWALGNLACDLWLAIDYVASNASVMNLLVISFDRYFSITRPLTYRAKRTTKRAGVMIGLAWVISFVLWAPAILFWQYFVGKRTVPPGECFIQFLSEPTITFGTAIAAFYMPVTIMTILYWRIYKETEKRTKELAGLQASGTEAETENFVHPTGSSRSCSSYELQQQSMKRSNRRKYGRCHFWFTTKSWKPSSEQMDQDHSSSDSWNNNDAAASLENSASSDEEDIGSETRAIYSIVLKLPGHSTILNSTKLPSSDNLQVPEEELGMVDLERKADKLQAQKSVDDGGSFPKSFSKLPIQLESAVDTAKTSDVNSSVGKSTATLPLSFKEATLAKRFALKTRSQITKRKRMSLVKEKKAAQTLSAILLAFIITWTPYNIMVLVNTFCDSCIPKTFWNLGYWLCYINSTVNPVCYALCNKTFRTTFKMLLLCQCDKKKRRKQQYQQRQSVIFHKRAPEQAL
assay overview: Antagonistic activity against muscarinic M3 receptor
Assay type: functional
property label: Ki

1. Cc1ncnc(C)c1C(=O)N1CCC(C)(N2CCN([C@@H](Cc3ccccc3)c3ccc(C(F)(F)F)cc3)[C@@H](C)C2)CC1 :: > 5.3 µM
2. CC[C@@H](c1ccc(C(F)(F)F)cc1)N1CCN(C2(C)CCN(C(=O)c3c(C)ncnc3C)CC2)C[C@@H]1C :: 9.09 µM
3. Cc1ncnc(C)c1C(=O)N1CCC(C)(N2CCN([C@@H](C)c3ccc(C(F)(F)F)cc3)[C@@H](C)C2)CC1 :: 0.716 µM
4. CCC[C@@H](c1ccc(C(F)(F)F)cc1)N1CCN(C2(C)CCN(C(=O)c3c(C)ncnc3C)CC2)C[C@@H]1C :: > 5.3 µM

* * *

assay overview: Half-life 24 hr after 2 mg/kg iv administration in rats
Type: ADME, organism-based
Set-up: dose 2 mg/kg, route intravenous
condition summary: rat, in vivo
property label: half-life (h)

1) CCC[C@@H](c1ccc(C(F)(F)F)cc1)N1CCN(C2(C)CCN(C(=O)c3c(C)ncnc3C)CC2)C[C@@H]1C :: 15.5

* * *

assay overview: Half-life 24 hr after 10 mg/kg iv administration in rats
Format: ADME, organism-based
Set-up: dose 10 mg/kg, route intravenous
condition summary: rat, in vivo
property label: half-life (h)

1) COC[C@@H](c1ccc(C(F)(F)F)cc1)N1CCN(C2(C)CCN(C(=O)c3c(C)ncnc3C)CC2)C[C@@H]1C :: 8

* * *

System: Rattus norvegicus
assay overview: Area under curve value 24 hr after 10 mg/kg iv administration in rats
Assay type: ADME, organism-based
Design: time < 24 hr, dose 10 mg/kg, route intravenous
condition summary: in vivo
property label: AUC 0-24h (ng·h/mL)

1) COC[C@@H](c1ccc(C(F)(F)F)cc1)N1CCN(C2(C)CCN(C(=O)c3c(C)ncnc3C)CC2)C[C@@H]1C :: 21000

* * *

System: Rattus norvegicus
assay overview: Area under curve value 24 hr after 2 mg/kg oral administration in rats
Type: ADME, organism-based
Parameters: time < 24 hr, dose 2 mg/kg, route oral
condition summary: in vivo
property label: AUC 0-24h

1. CCC[C@@H](c1ccc(C(F)(F)F)cc1)N1CCN(C2(C)CCN(C(=O)c3c(C)ncnc3C)CC2)C[C@@H]1C :: 3270 ng·h/mL

* * *

Catalogue of AUC 0-6h readings, one per entry.
Test system: Rattus norvegicus
assay overview: Area under curve value 6 hr after po administration in rat
Format: ADME, organism-based
Design: time < 6 hr, route oral; concentration or dose not given beside the values
condition summary: in vivo
property label: AUC 0-6h (ng·h/mL)

1) CC[C@@H](c1ccc(C(F)(F)F)cc1)N1CCN(C2(C)CCN(C(=O)c3c(C)ncnc3C)CC2)C[C@@H]1C :: 7310
2) COC[C@@H](c1ccc(C(F)(F)F)cc1)N1CCN(C2(C)CCN(C(=O)c3c(C)ncnc3C)CC2)C[C@@H]1C :: 6900
3) Cc1ncnc(C)c1C(=O)N1CCC(C)(N2CCN([C@@H](C)c3ccc(C(F)(F)F)cc3)[C@@H](C)C2)CC1 :: 6210
4) CCC[C@@H](c1ccc(C(F)(F)F)cc1)N1CCN(C2(C)CCN(C(=O)c3c(C)ncnc3C)CC2)C[C@@H]1C :: 4600

* * *

Catalogue of half-life readings, one per entry.
assay overview: Half-life 24 hr after 2 mg/kg iv administration in monkeys
Type: ADME, organism-based
Design: dose 2 mg/kg, route intravenous
condition summary: cercopithecidae, in vivo
property label: half-life (h)

1) COC[C@@H](c1ccc(C(F)(F)F)cc1)N1CCN(C2(C)CCN(C(=O)c3c(C)ncnc3C)CC2)C[C@@H]1C :: 3.5
2) CCC[C@@H](c1ccc(C(F)(F)F)cc1)N1CCN(C2(C)CCN(C(=O)c3c(C)ncnc3C)CC2)C[C@@H]1C :: 6.3

* * *

Catalogue of pKi readings, one per entry.
target entity: C-C chemokine receptor type 5 (Homo sapiens)
Sequence (P51681 whole entry): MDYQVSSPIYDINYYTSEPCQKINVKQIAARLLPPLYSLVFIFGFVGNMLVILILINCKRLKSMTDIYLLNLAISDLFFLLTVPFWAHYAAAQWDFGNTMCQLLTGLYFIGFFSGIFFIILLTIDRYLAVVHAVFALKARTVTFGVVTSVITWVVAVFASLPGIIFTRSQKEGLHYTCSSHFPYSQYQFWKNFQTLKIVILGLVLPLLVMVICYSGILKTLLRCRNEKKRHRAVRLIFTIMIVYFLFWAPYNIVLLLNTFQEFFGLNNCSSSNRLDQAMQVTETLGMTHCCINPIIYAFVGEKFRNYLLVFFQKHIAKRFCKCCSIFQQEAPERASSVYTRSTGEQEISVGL
assay overview: Antagonistic activity against C-C chemokine receptor type 5
pKi: −log10 of the molar value.
property label: pKi

1) CC[C@@H](c1ccc(C(F)(F)F)cc1)N1CCN(C2(C)CCN(C(=O)c3c(C)ncnc3C)CC2)C[C@@H]1C :: 8.28
2) Cc1ncnc(C)c1C(=O)N1CCC(C)(N2CCN([C@@H](CC3CC3)c3ccc(C(F)(F)F)cc3)[C@@H](C)C2)CC1 :: 8.80
3) Cc1ncnc(C)c1C(=O)N1CCC(C)(N2CCN([C@@H](Cc3ccccc3)c3ccc(C(F)(F)F)cc3)[C@@H](C)C2)CC1 :: 8.85
4) CCC[C@@H](c1ccc(C(F)(F)F)cc1)N1CCN(C2(C)CCN(C(=O)c3c(C)ncnc3C)CC2)C[C@@H]1C :: 8.96

* * *

target entity: UniProtKB P08172
Sequence (P08172 whole entry): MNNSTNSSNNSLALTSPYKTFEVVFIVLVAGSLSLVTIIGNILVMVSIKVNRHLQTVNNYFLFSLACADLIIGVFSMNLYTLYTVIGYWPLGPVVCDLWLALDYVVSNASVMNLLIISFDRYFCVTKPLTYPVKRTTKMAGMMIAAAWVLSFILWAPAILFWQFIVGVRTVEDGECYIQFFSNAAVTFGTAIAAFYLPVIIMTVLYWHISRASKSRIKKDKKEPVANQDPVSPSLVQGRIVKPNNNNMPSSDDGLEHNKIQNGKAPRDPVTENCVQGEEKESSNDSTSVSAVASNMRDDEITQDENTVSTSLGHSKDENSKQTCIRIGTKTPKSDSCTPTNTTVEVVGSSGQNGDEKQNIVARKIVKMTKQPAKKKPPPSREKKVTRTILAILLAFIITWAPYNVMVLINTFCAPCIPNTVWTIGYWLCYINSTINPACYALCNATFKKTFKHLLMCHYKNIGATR
assay overview: Antagonistic activity against Muscarinic acetylcholine receptor M2
Catalogue of Ki readings, one per entry.
property label: Ki (µM)

1. CCC[C@@H](c1ccc(C(F)(F)F)cc1)N1CCN(C2(C)CCN(C(=O)c3c(C)ncnc3C)CC2)C[C@@H]1C :: 4.76
2. Cc1ncnc(C)c1C(=O)N1CCC(C)(N2CCN([C@@H](CC3CC3)c3ccc(C(F)(F)F)cc3)[C@@H](C)C2)CC1 :: 3.51
3. CC[C@@H](c1ccc(C(F)(F)F)cc1)N1CCN(C2(C)CCN(C(=O)c3c(C)ncnc3C)CC2)C[C@@H]1C :: 4.75

* * *

target entity: Muscarinic acetylcholine receptor M1 (Homo sapiens)
Sequence (P11229 whole entry): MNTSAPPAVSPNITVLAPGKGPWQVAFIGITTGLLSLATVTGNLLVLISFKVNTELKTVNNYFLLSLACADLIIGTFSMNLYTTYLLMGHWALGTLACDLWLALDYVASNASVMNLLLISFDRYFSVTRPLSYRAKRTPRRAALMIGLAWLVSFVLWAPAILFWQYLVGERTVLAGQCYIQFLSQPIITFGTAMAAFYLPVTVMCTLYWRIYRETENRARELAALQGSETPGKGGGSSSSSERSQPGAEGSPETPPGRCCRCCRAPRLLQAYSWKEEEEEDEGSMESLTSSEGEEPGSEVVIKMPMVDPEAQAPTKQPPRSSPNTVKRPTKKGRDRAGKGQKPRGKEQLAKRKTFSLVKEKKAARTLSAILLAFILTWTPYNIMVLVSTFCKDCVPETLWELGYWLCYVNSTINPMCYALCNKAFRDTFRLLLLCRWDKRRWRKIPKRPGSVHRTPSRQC
assay overview: Antagonistic activity against muscarinic M1 receptor
property label: Ki (µM)

1. CCC[C@@H](c1ccc(C(F)(F)F)cc1)N1CCN(C2(C)CCN(C(=O)c3c(C)ncnc3C)CC2)C[C@@H]1C :: 6.07
2. CC[C@@H](c1ccc(C(F)(F)F)cc1)N1CCN(C2(C)CCN(C(=O)c3c(C)ncnc3C)CC2)C[C@@H]1C :: 3.9
3. Cc1ncnc(C)c1C(=O)N1CCC(C)(N2CCN([C@@H](CC3CC3)c3ccc(C(F)(F)F)cc3)[C@@H](C)C2)CC1 :: 1.89
4. Cc1ncnc(C)c1C(=O)N1CCC(C)(N2CCN([C@@H](C)c3ccc(C(F)(F)F)cc3)[C@@H](C)C2)CC1 :: 0.575

* * *

Test system: Rattus norvegicus
assay overview: Area under curve value 6 hr after po administration in rat
Type: ADME, organism-based
Parameters: time < 6 hr, route oral; concentration or dose not given beside the values
condition summary: in vivo
property label: AUC 0-6h (µg·h/mL)

1. Cc1ncnc(C)c1C(=O)N1CCC(C)(N2CCN([C@@H](Cc3ccccc3)c3ccc(C(F)(F)F)cc3)[C@@H](C)C2)CC1 :: 2.03
2. Cc1ncnc(C)c1C(=O)N1CCC(C)(N2CCN([C@@H](CCC(F)(F)F)c3ccc(C(F)(F)F)cc3)[C@@H](C)C2)CC1 :: 4.6
3. Cc1ncnc(C)c1C(=O)N1CCC(C)(N2CCN([C@@H](CC3CC3)c3ccc(C(F)(F)F)cc3)[C@@H](C)C2)CC1 :: 5.9

* * *

assay overview: Cmax 24 hr after 10 mg/kg oral administration in rats
Type: ADME, organism-based
Design: dose 10 mg/kg, route oral
condition summary: rat, in vivo
property label: Cmax

1. COC[C@@H](c1ccc(C(F)(F)F)cc1)N1CCN(C2(C)CCN(C(=O)c3c(C)ncnc3C)CC2)C[C@@H]1C :: 2.3 µg/mL
